study-target: ALK2 (Mus musculus, UniProt P37172)
Construct: The C2C12 cell line was selected for the measurement of ALK2 activity using BMP6 as the agonist; host or cells: C2C12
Sequence (P37172 21-509): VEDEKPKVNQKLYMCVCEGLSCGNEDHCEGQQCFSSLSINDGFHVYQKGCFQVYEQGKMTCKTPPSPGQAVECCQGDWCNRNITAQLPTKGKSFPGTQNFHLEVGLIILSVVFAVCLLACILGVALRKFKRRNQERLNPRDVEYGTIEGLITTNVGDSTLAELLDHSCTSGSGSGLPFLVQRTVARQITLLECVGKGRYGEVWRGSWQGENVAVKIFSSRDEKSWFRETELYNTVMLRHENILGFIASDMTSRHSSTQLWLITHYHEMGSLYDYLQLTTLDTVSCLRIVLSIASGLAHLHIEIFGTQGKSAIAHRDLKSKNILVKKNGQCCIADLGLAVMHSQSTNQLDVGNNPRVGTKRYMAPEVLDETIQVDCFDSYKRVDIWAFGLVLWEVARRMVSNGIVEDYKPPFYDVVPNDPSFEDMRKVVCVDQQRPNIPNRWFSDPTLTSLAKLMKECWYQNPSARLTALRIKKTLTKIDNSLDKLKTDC
measurement-description: HTRF pSMAD1 cell-based ALK2 assay (C2C12 cells, BMP6 as agonist)
stated-conditions: cell-based assay, BMP6; read-out: Cell IC50 BMP6
pIC50: −log10 of the molar value.
Binary call on pIC50: 1.0 from 6 upward, 0.0 beneath that.

[
  {
    "compound": "NS(=O)(=O)c1ccc(-c2cnn3cc(-c4ccc(C5(O)CCNCC5)nc4)cnc23)c2ccccc12 [Compound 56]",
    "classification": 0.0
  },
  {
    "compound": "C[C@@H]1CNC[C@H](C)N1c1ccc(-c2cnc3c(-c4cccc(C(F)(F)F)c4)cnn3c2)cc1 [Compound 81]",
    "classification": 0.0
  },
  {
    "compound": "C[C@@H]1CNC[C@H](C)N1c1ccc(-c2cnc3c(-c4ccc(C(N)=O)c5ccccc45)cnn3c2)cc1 [Compound 9]",
    "classification": 1.0
  },
  {
    "compound": "CS(=O)(=O)c1cccc(-c2cnn3cc(-c4ccc(C(F)(F)CN5CCCCC5)cc4)cnc23)c1 [Compound 120]",
    "classification": 0.0
  },
  {
    "compound": "CC(C)S(=O)(=O)c1cccc(-c2cnn3cc(-c4ccc(CCN5CCCCC5)cc4)cnc23)c1 [Compound 113]",
    "classification": 1.0
  },
  {
    "compound": "CC(C)(CN1CCCCC1)Oc1ccc(-c2cnc3c(-c4cccc5c(C(N)=O)cccc45)cnn3c2)cc1 [Compound 18]",
    "classification": 1.0
  },
  {
    "compound": "C[C@@H]1CNC[C@H](C)N1c1ccc(-c2cnc3c(-c4ccc(S(=O)(=O)C(F)(F)F)cc4)cnn3c2)cc1 [Compound 45]",
    "classification": 0.0
  },
  {
    "compound": "CC(C)(CN1CCCCC1)Oc1ccc(-c2cnc3c(-c4ccc(C(N)=O)c5ccccc45)cnn3c2)cc1 [Compound 17]",
    "classification": 1.0
  },
  {
    "compound": "C[S+](=O)([O-])c1cccc(-c2cnn3cc(-c4ccc(OCCN5CCCCC5)cc4)cnc23)c1 [Compound 109]",
    "classification": 1.0
  },
  {
    "compound": "CS(=O)(=O)c1cccc(-c2cnn3cc(-c4ccc(CCN5CCCCC5)cc4)cnc23)c1 [Compound 86]",
    "classification": 1.0
  },
  {
    "compound": "C[C@@H]1CNC[C@H](C)N1c1ccc(-c2cnc3c(-c4ccc(-c5nn[nH]n5)c5ccccc45)cnn3c2)cc1 [Compound 26]",
    "classification": 0.0
  },
  {
    "compound": "CC(C)(O)c1cccc(-c2cnn3cc(-c4ccc(C5CCNCC5)cc4)cnc23)c1 [Compound 100]",
    "classification": 1.0
  },
  {
    "compound": "CS(=O)(=O)c1cccc(-c2cnn3cc(-c4ccc(OCCn5ccnc5)cc4)cnc23)c1 [Compound 102]",
    "classification": 1.0
  },
  {
    "compound": "Cc1ccc([S+](=O)([O-])C(F)(F)F)cc1-c1cnn2cc(-c3ccc(N4[C@H](C)CNC[C@@H]4C)cc3)cnc12 [Compound 107]",
    "classification": 0.0
  },
  {
    "compound": "C[C@@H]1CNC[C@H](C)N1c1ccc(-c2cnc3c(-c4cc(N)cc5ccccc45)cnn3c2)cc1 [Compound 58]",
    "classification": 1.0
  }
]
